# assayProcedure: AUC (0 to infinity) in Sprague-Dawley rat at 10 mg/kg, po administered as single dose
# Type: ADME, organism-based
# Design: dose 10 mg/kg, route oral, time infinity
# testParameters: in vivo
readoutType: AUC(0-inf) (ng·h/mL)
Numbers only; they are read as ng·h/mL.

Asked: Requested field: AUC(0-inf). Item: Cc1noc(C)c1-c1ccc2c(c1)O[C@H](CC1CC1)C(=O)N2
Given back: 1460

----------
Measured IC50, listed per entry.
# measurementTarget: Bromodomain-containing protein 4 (Homo sapiens, UniProt O60885)
# assayProcedure: Inhibition of His6-tagged human BRD4 bromodomain-1 (N44 to E168 residues) expressed in Escherichia coli BL21(DE3) using biotinylated-H4KAc4 as substrate by AlphaScreen assay
Respond numerically; units are nM and should not be typed.

Worked examples follow.
compound="CCCC1Oc2cc(-c3c(C)noc3C)ccc2NC1=O (stereo not drawn)" measurement=290
compound="Cc1noc(C)c1-c1ccc2c(c1)OC(c1cccc(F)c1)C(=O)N2 (stereo not drawn)" measurement=620

Asked: Form field: reported IC50 of Cc1noc(C)c1-c1ccc2c(c1)OC(CC(C)C)C(=O)N2 (stereo not drawn)
Given back: 180

Asked: Recorded IC50 of Cc1noc(C)c1-c1ccc2c(c1)O[C@@H](CC1CC1)C(=O)N2 , please.
Given back: 3540

Asked: Item Cc1noc(C)c1-c1ccc2c(c1)OC(c1ccccc1F)C(=O)N2 (stereo not drawn) has what recorded IC50?
Given back: 570

Asked: Requested field: IC50. Item: Cc1noc(C)c1-c1ccc2c(c1)O[C@H](CC1CC1)C(=O)N2CCN1CCOCC1
Given back: 590

----------
# assayProcedure: Half life in Sprague-Dawley rat at 10 mg/kg, po administered as single dose
# Type: ADME, organism-based
# testParameters: in vivo
readoutType: half-life (min)
Record the value in min, omitting the unit from your answer.

Asked: So what does the record say about half-life for Cc1noc(C)c1-c1ccc2c(c1)O[C@H](CC1CC1)C(=O)N2 ?
Given back: 42

----------
Known ΔTm of a selection of compounds
# measurementTarget: Bromodomain-containing protein 9 (Homo sapiens)
# assayProcedure: Binding affinity to His6-tagged human BRD9 (L14 to Q134 residues) expressed in Escherichia coli BL21(DE3) assessed as change in melting temperature at 200 uM by SYPRO orange dye based fluorescence assay
Write the value in °C as a bare number.

compound=Cc1noc(C)c1-c1ccc2c(c1)O[C@H](CC1CC1)C(=O)N2CCN1CCOCC1 readouttype=ΔTm measurement=5.1

Asked: For Cc1noc(C)c1-c1ccc2c(c1)OC(c1ccccc1F)C(=O)N2 (configuration not stated) , what is its reported ΔTm?
Given back: -0.3

Asked: Entry Cc1noc(C)c1-c1ccc2c(c1)OC(c1ccccc1)C(=O)N2 (configuration not stated) : reported ΔTm = ?
Given back: 2.4

Asked: Quick check: ΔTm of Cc1noc(C)c1-c1ccc2c(c1)O[C@H](CC1CC1)C(=O)N2 ?
Given back: 3.6

Asked: Fill blank: measured ΔTm of the compound CCN1C(=O)[C@@H](CC2CC2)Oc2cc(-c3c(C)noc3C)ccc21 is ____.
Given back: 3.7

Asked: Please report the recorded ΔTm for Cc1sc2c(c1C)C(c1ccc(Cl)cc1)=N[C@@H](CC(=O)OC(C)(C)C)c1nnc(C)n1-2 .
Given back: -2.4

Asked: Entry Cc1noc(C)c1-c1ccc2c(c1)O[C@H](CC(C)C)C(=O)N2 has what ΔTm?
Given back: 2.4
